Each recorded value in this set is attributed to ChEMBL document CHEMBL4725351.

System: Staphylococcus aureus
experimental-details: Antibiofilm activity against methicillin-resistant Staphylococcus aureus SAP0017 incubated for 24 hrs under shaking condition by turbidometric method
Format: functional
Where a SMILES comes first, the peptide text is derived from it. Bridges are numbered along the chain shown (N, C = ends).
test-readout: MBEC (µM)
Expressed in µM, but write only the number.

Query: // query MBEC value for entry CC[C@H](C)[C@@H]1NC(=O)[C@H](CCCNC(=N)N)NC(=O)[C@H](C(C)C)NC(=O)[C@H](C)NC(=O)[C@H](C(C)C)NC(=O)[C@H]([C@@H](C)CC)NC(=O)[C@H](CC(C)C)NC(=O)[C@H](CCCNC(=N)N)NC(=O)[C@H](C(C)C)NC(=O)CC[C@@H](C(N)=O)NC(=O)[C@H](CCCNC(=N)N)NC(=O)[C@H](CCCNC(=N)N)NC(=O)[C@H](Cc2c[nH]c3ccccc23)NC1=O (VRLIVAVRIWRRE-NH2; lactam N-13)
Reply: 9.7

Query: Given CC[C@H](C)[C@@H]1NC(=O)[C@H](CCCNC(=N)N)NC(=O)[C@H](C(C)C)NC(=O)[C@H](C)NC(=O)[C@H](C(C)C)NC(=O)[C@H]([C@@H](C)CC)NC(=O)[C@H](CC(C)C)NC(=O)[C@H](CCCNC(=N)N)NC(=O)[C@H](C(C)C)NC(=O)[C@H](CCCNC(=N)N)NC(=O)[C@H](CCCNC(=N)N)NC(=O)[C@H](Cc2c[nH]c3ccccc23)NC1=O (cyclo(AVRIWRRVRLIV)) , state its recorded MBEC.
Reply: 65.8

Query: Requested field: MBEC. Item: CC[C@H](C)[C@@H]1NC(=O)[C@H](CCCNC(=N)N)NC(=O)[C@H](C(C)C)NC(=O)[C@H](C)NC(=O)[C@H](C(C)C)NC(=O)[C@H]([C@@H](C)CC)NC(=O)[C@H](CC(C)C)NC(=O)[C@H](CCCNC(=N)N)NC(=O)[C@H](C(C)C)NC(=O)[C@@H](N)CSSC[C@@H](C(N)=O)NC(=O)[C@H](CCCNC(=N)N)NC(=O)[C@H](CCCNC(=N)N)NC(=O)[C@H](Cc2c[nH]c3ccccc23)NC1=O (H-CVRLIVAVRIWRRC-NH2; disulfide 1-14)
Reply: 18.3

Query: Looking for the measured MBEC of CCCCCCCCCCCCCCCC[N+](C)(C)Cc1ccccc1.[Cl-] [CETALKONIUM CHLORIDE] , can you help?
Reply: 15.1
